Biological target: dengue type 2 virus (DENV-2), prototype New Guinea C strain, virions (dengue type 2 virus, UniProt P14340 281-775; P14340 115-280)
Experiment: ELISA, virion-coated plate, Fab from ~300 µg/ml
In this section we review reported ELISA titer of Fab binding values for a set of binders.

binder: chimpanzee Fab 5D9 (Fab, V domains shown) VH: EVQLLESGPGLVKPSETLSLTCTVSGGSISDFYWSWLRQSPGKGLEWIGVAHSRVSAYYNPSLKSRVTISVDTSKNQLSLRLSAVTAADAALYYCARQGTGTTGVSEDPFDLWGQGTKVIVSL VL: ELTQSPSSLSASVGDRVTITCRASQGISNRLNWYQQKPGQGPKFLMYDASSLVSGVPSRFSGSGSGTDFTLTISSLQPEDFAVYYCQQFNSYPLTFGGGTKLEIKR
attributeMeasured: ELISA titer of Fab binding
observed: < 1 log10 of reciprocal dilution
--
binder: chimpanzee Fab 5A7 (Fab, V domains shown) VH: EVQLLESGGGLVQPGGSLRLSCAASGVTFSSYWMHWVRQAPGKGLEWVSRINSDGSSTNYADSVEGRFTISRDNAKNTLYLQMNSLRAEDTAVYYCSRGGLWDWSPRRIEETKTPFDYWGQGTLVTVSS VL: ELTQGPATLSLSPGERATLSCRAGQSLDSSLLSWYQQKPGQAPRLLMYDASTRAPGVPARFSGSGSGTDFTLTISSLQPEDFAVYYCQQHYNLPRTFGQGTKLEIKR
attributeMeasured: ELISA titer of Fab binding
observed: 2.51 log10 of reciprocal dilution

// moving on: another record for ELISA titer of Fab binding
// recorded ELISA titer of Fab binding for chimpanzee Fab 3E4 (Fab, V domains shown) VH: VQLLEQSGAEVKKPGGSVKVSCKVSGGTFSRNPISWVRQAPGQGLEWMSVIVPIVGTTKHAQKFQGRVTITADESTSTAYMELSSLRSEDTAVYYCATYRRYADVSSYSEYWGQGTLVTVSS VL: ELTQSPLSLPVTLGQPASISCRSSQNLVHSDGNTYLSWIQQRPGQPPRLLIYKVSNRDSGVPDRFSGSGAGTDFTLKITRVEAEDVGLYYCVQGVQFPITFGQGTKLEIKR : 4.31 log10 of reciprocal dilution
